- systemName: T1, soluble human ILT4-ECD (human, UniProt Q8N423 22-460)
- T1 construct: also called LILRB2 extracellular domain
- T1 sequence (Q8N423 other isoform, or with tags, fused parts or gaps): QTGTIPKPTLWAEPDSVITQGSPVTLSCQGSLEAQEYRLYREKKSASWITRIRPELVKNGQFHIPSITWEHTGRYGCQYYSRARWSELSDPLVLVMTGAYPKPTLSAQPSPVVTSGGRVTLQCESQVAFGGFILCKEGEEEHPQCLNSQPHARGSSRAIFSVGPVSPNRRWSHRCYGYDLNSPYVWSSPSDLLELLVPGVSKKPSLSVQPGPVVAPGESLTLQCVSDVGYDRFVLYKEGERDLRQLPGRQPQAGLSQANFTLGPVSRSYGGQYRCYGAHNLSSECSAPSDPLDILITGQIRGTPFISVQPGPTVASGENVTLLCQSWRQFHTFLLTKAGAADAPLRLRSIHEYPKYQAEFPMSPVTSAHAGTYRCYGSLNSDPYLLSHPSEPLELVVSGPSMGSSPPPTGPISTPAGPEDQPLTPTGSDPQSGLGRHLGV
- assayInfo: SPR (Biacore), antibody captured on Protein A chip, soluble ILT-ECD injected (1.6-200 nM), 25 C
reportedProperty: kon (M⁻¹ s⁻¹)
Reply with just the number (in M⁻¹ s⁻¹).

stdin: I have this binder here, anti-ILT4 antibody 48A5 (antibody, V domains shown, Mouse hybridoma antibody; also called clone 48A5; anti-ILT4 (48A5)) VH: QIQLVQSGPELKKPGETVKISCKASGYTFTNYGMNWVKQAPGKGLKWMGWINTYIGEPIYADDFKGRFAFSLETSASTAYLQINNLKNEDMATYFCARRSDYDGYAMDYWGQGTSVTVSS VL: DIVMSQSPSSLAVSVGERVTMSCKSSQSLLYSGNQKNYLAWYQQKPGQSPKLLIYWASTRESGVPDRFTGSGSGTDFTLTISSVKAEDLAVYYCQQHDSYPTFGGGSRLEIK , and I need its recorded kon.
stdout: 810000
